- targetDesc: Cytochrome P450 2C19 (Homo sapiens, UniProt P33261)
- Sequence (P33261 whole entry): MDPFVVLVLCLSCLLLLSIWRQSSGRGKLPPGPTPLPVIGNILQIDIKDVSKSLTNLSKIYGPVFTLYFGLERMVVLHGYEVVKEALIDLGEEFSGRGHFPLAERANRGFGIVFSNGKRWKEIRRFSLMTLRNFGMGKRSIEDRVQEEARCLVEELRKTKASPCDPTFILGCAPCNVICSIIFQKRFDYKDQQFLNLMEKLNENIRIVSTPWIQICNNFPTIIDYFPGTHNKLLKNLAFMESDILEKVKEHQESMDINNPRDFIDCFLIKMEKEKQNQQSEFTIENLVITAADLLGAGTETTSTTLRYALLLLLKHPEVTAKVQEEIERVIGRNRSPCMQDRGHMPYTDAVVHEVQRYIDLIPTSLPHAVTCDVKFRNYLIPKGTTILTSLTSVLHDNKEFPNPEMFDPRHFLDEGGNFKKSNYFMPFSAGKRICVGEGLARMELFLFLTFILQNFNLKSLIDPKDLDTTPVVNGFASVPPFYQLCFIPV
- methodSummary: Inhibition of recombinant human CYP2C19
- Assay type: ADME
pIC50: −log10 of the molar value.
resultType: pIC50

Sample CS(=O)(=O)n1cc2c(n1)CN([C@@H]1C[C@H](N)[C@@H](c3cc(F)ccc3F)O[C@@H]1C(F)(F)F)C2 — what was its pIC50? < 4.00

###

- targetDesc: Cytochrome P450 3A4 (Homo sapiens)
- methodSummary: Inhibition of recombinant human CYP3A4 using testosterone as substrate
- Assay type: ADME
pIC50: −log10 of the molar value.
resultType: pIC50

Which pIC50 value is on record for CS(=O)(=O)n1cc2c(n1)CN([C@@H]1C[C@H](N)[C@@H](c3cc(F)ccc3F)O[C@@H]1C(F)(F)F)C2 ? < 4.00

###

- targetDesc: Cytochrome P450 1A2 (Homo sapiens)
- Sequence (P05177 whole entry): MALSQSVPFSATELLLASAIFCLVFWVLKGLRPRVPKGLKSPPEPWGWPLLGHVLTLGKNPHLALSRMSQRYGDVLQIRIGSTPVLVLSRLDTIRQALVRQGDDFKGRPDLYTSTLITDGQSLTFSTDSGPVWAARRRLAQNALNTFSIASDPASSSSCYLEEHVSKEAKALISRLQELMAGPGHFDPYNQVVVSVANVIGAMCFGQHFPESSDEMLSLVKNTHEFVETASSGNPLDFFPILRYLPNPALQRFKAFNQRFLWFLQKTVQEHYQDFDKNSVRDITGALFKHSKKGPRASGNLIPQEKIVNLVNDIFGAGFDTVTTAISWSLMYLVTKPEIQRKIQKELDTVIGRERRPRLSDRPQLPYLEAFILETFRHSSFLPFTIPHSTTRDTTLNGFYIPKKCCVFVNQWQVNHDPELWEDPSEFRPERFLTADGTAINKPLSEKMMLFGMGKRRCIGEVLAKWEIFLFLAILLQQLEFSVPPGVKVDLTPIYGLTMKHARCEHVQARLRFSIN
- methodSummary: Inhibition of recombinant human CYP1A2
- Type: ADME
resultType: IC50

May I ask what IC50 has been recorded for CS(=O)(=O)n1cc2c(n1)CN([C@@H]1C[C@H](N)[C@@H](c3cc(F)ccc3F)O[C@@H]1C(F)(F)F)C2 ? > 100 µM

###

- methodSummary: Oral bioavailability in ICR mouse at 2 mg/kg measured after 0.0833 to 120 hrs by LC-MS-MS analysis
- Format: ADME, organism-based
- measurementContext: in vivo
Entries annotated with measured bioavailability
The reply should be a number in %, with the unit left off.

* CS(=O)(=O)n1cc2c(n1)CN([C@@H]1C[C@H](N)[C@@H](c3cc(F)c(F)cc3F)O[C@@H]1C(F)(F)F)C2 | 114
* CS(=O)(=O)n1cc2c(n1)CN([C@H]1CO[C@H](c3cc(F)ccc3F)[C@@H](N)[C@H]1F)C2 | 45.4
* CS(=O)(=O)n1cc2c(n1)CN([C@@H]1C[C@H](N)[C@@H](c3cc(F)ccc3F)O[C@@H]1C(F)(F)F)C2 | 62.2

Moving on to the next molecule.
Param item = CS(=O)(=O)n1cc2c(n1)CN([C@H]1CO[C@H](c3cc(F)ccc3F)[C@@H](N)C1)C2 ; retrieve measured bioavailability. 95

###

- methodSummary: Half life in ICR mouse at 0.5 mg/kg, iv measured after 0.0833 to 120 hrs by LC-MS-MS analysis
- Format: ADME, organism-based
- measurementContext: in vivo
Reported half-life values for the following compounds.
Answer format: numeric, h implied, no suffix.

• CS(=O)(=O)n1cc2c(n1)CN([C@@H]1C[C@H](N)[C@@H](c3cc(F)ccc3F)O[C@@H]1C(F)(F)F)C2 = 25.6
• CS(=O)(=O)n1cc2c(n1)CN([C@H]1CO[C@H](c3cc(F)ccc3F)[C@@H](N)C1)C2 = 3.05
• CS(=O)(=O)n1cc2c(n1)CN([C@H]1CO[C@H](c3cc(F)ccc3F)[C@@H](N)[C@H]1F)C2 = 20.9

Proceeding to the next compound to report its half-life.
# lookup: half-life of CS(=O)(=O)n1cc2c(n1)CN([C@@H]1C[C@H](N)[C@@H](c3cc(F)c(F)cc3F)O[C@@H]1C(F)(F)F)C2 19.7

###

- methodSummary: AUC (0 to t) in ICR mouse at 2 mg/kg, po measured after 0.0833 to 120 hrs by LC-MS-MS analysis
- Assay type: ADME, organism-based
- Parameters: time upper 120 hr, time lower 0.083 hr, dose 2 mg/kg, route oral
- measurementContext: in vivo
resultType: AUC(0-t) (ng·h/mL)
# number only, unit ng·h/mL dropped from output

Example cases with answers are listed next.
- CS(=O)(=O)n1cc2c(n1)CN([C@@H]1C[C@H](N)[C@@H](c3cc(F)c(F)cc3F)O[C@@H]1C(F)(F)F)C2: 26500
- CS(=O)(=O)n1cc2c(n1)CN([C@H]1CO[C@H](c3cc(F)ccc3F)[C@@H](N)C1)C2: 4100
- CS(=O)(=O)n1cc2c(n1)CN([C@@H]1C[C@H](N)[C@@H](c3cc(F)ccc3F)O[C@@H]1C(F)(F)F)C2: 7900

We now examine a further compound.
Look up AUC(0-t) for this compound: CS(=O)(=O)n1cc2c(n1)CN([C@H]1CO[C@H](c3cc(F)ccc3F)[C@@H](N)[C@H]1F)C2 23500

###

- targetDesc: UniProt P08684
- methodSummary: Stability assessed as recombinant human CYP3A4 mediated compound metabolism by measuring parent compound remaining after 30 mins relative to control
- Type: ADME
- measurementContext: read-out: Stability
resultType: remaining at 0.5 h

Look at this compound and give its reported remaining at 0.5 h. CS(=O)(=O)n1cc2c(n1)CN([C@@H]1C[C@H](N)[C@@H](c3cc(F)ccc3F)O[C@@H]1C(F)(F)F)C2 [COFROGLIPTIN] > 95%

###

- targetDesc: Cytochrome P450 3A4 (Homo sapiens, UniProt P08684)
- Sequence (P08684 whole entry): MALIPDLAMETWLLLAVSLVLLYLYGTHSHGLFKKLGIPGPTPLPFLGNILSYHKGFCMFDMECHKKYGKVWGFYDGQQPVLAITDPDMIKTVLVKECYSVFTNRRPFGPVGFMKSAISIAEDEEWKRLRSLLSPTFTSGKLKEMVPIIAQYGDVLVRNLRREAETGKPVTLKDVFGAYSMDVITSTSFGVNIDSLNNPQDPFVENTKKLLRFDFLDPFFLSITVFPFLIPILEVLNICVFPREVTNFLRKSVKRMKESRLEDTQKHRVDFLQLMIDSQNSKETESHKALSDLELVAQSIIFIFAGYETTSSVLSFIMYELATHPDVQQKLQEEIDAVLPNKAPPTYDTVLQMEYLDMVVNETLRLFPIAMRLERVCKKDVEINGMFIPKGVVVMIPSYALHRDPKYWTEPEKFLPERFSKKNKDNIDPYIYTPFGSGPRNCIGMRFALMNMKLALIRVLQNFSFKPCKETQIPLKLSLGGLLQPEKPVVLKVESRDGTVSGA
- methodSummary: Inhibition of recombinant human CYP3A4 using testosterone as substrate
- Type: ADME
resultType: IC50

Find the recorded IC50 belonging to CS(=O)(=O)n1cc2c(n1)CN([C@@H]1C[C@H](N)[C@@H](c3cc(F)ccc3F)O[C@@H]1C(F)(F)F)C2 [COFROGLIPTIN] and report it. > 100 µM

###

- methodSummary: Volume of distribution at steady state in ICR mouse at 0.5 mg/kg, iv measured after 0.0833 to 120 hrs by LC-MS-MS analysis
- Type: ADME, organism-based
- measurementContext: in vivo, read-out: Vdss
Measured Vd of individual entries
Give the value, in units of L/kg, as a plain number.

• CS(=O)(=O)n1cc2c(n1)CN([C@@H]1C[C@H](N)[C@@H](c3cc(F)ccc3F)O[C@@H]1C(F)(F)F)C2 = 3.3
• CS(=O)(=O)n1cc2c(n1)CN([C@H]1CO[C@H](c3cc(F)ccc3F)[C@@H](N)[C@H]1F)C2 = 0.957
• CS(=O)(=O)n1cc2c(n1)CN([C@@H]1C[C@H](N)[C@@H](c3cc(F)c(F)cc3F)O[C@@H]1C(F)(F)F)C2 = 2.27

Shifting focus to the molecule that follows.
Reported Vd for CS(=O)(=O)n1cc2c(n1)CN([C@H]1CO[C@H](c3cc(F)ccc3F)[C@@H](N)C1)C2 : what is it? 1.65

###

- targetDesc: Cytochrome P450 2A6 (Homo sapiens, UniProt P11509)
- Sequence (P11509 whole entry): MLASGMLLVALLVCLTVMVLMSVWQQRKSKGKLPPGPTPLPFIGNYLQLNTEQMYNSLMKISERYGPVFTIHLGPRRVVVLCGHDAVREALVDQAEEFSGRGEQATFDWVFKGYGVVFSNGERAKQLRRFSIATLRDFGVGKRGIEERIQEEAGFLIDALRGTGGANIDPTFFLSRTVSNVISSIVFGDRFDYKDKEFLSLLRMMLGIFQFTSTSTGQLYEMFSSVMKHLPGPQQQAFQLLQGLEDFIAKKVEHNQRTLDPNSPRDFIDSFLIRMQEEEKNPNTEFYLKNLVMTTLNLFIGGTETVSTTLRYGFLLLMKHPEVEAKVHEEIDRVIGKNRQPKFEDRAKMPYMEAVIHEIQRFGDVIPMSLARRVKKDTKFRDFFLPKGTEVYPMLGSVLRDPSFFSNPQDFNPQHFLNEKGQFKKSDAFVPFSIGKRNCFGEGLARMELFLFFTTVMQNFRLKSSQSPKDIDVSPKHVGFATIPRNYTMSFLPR
- methodSummary: Inhibition of recombinant human CYP2A6
- Format: ADME
pIC50: −log10 of the molar value.
resultType: pIC50

Short answer please: pIC50, Cytochrome P450 2A6 (Homo sapiens, UniProt P11509), entry CS(=O)(=O)n1cc2c(n1)CN([C@@H]1C[C@H](N)[C@@H](c3cc(F)ccc3F)O[C@@H]1C(F)(F)F)C2 < 4.00

###

- targetDesc: Cytochrome P450 2E1 (Homo sapiens)
- Sequence (P05181 whole entry): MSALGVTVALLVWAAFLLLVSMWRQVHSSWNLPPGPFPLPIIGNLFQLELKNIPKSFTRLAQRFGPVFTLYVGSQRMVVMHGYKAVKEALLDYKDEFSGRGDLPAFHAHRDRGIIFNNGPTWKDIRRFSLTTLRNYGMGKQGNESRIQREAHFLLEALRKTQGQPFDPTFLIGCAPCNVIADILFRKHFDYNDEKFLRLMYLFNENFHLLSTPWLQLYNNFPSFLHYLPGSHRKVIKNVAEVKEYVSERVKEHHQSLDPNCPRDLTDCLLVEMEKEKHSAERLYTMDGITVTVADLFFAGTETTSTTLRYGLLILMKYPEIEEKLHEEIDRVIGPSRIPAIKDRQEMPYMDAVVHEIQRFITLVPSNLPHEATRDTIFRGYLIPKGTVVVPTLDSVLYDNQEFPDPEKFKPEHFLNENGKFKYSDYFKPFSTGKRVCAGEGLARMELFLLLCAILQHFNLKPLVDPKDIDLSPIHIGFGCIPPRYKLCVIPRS
- methodSummary: Inhibition of recombinant human CYP2E1
- Format: ADME
resultType: IC50

Entry CS(=O)(=O)n1cc2c(n1)CN([C@@H]1C[C@H](N)[C@@H](c3cc(F)ccc3F)O[C@@H]1C(F)(F)F)C2 [COFROGLIPTIN] : reported IC50 = ? > 100 µM

###

- targetDesc: Cytochrome P450 2B6 (Homo sapiens, UniProt P20813)
- Sequence (P20813 whole entry): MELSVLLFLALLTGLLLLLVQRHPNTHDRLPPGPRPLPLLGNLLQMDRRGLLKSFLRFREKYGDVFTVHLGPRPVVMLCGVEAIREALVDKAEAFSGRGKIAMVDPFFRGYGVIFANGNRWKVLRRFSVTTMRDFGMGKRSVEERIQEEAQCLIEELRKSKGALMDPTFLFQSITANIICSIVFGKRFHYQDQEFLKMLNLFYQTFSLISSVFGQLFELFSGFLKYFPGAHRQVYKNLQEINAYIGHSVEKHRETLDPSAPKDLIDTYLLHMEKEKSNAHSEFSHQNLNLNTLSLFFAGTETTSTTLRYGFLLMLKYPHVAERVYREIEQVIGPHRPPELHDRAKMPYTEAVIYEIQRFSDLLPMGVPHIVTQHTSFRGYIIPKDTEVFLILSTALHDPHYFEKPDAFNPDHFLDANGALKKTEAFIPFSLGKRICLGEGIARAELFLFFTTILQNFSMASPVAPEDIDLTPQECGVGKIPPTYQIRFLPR
- methodSummary: Inhibition of recombinant human CYP2B6
- Assay type: ADME
resultType: IC50

# input molecule: CS(=O)(=O)n1cc2c(n1)CN([C@@H]1C[C@H](N)[C@@H](c3cc(F)ccc3F)O[C@@H]1C(F)(F)F)C2 [COFROGLIPTIN] ; wanted: its IC50 > 100 µM
